Origin of measurements: patent US8039076B2

METHOD_SUMMARY: Optical measurement of the dyes by UV-visible spectrophotometer
Format: physicochemical
Design: unit: nm
RECORDED_CONDITIONS: MeOH solution; first band
PROPERTY_LABEL: Max absorption wavelength in MeOH solution

{"columns": ["COMPOUND", "RECORDED_MEASUREMENT"],
 "data": [
  ["CC1=[N+](Cc2ccc(C(=O)OCC(F)(F)C(F)F)cc2)c2ccccc2C1(C)C [I-e]", 471],
  ["CCCCN(CCCC)c1ccc([N+](=C2C=CC(=[N+](c3ccc(N(CCCC)CCCC)cc3)c3ccc(N(CCCC)CCCC)cc3)C=C2)c2ccc(N(CCCC)CCCC)cc2)cc1 [V-c]", 461],
  ["CCCCN(CCCC)c1ccc([N+](=C2C=CC(=[N+](c3ccc(N(CCCC)CCCC)cc3)c3ccc(N(CCCC)CCCC)cc3)C=C2)c2ccc(N(CCCC)CCCC)cc2)cc1 [I-d]", 460],
  ["CC1=[N+](Cc2ccc(C(=O)OCC(F)(F)C(F)F)cc2)c2ccccc2C1(C)C [I-i]", 464],
  ["CC1=[N+](Cc2ccc(C(=O)OCC(F)(F)C(F)F)cc2)c2ccccc2C1(C)C [I-g]", 463],
  ["CCCC[N+](CCCC)(CCCC)CCCC [I-c]", 460],
  ["CC1=[N+](C)c2ccccc2C1(C)C [I-n]", 462],
  ["CC1=[N+](Cc2ccc(C(=O)OCC(F)(F)C(F)F)cc2)c2ccccc2C1(C)C [I-f]", 448],
  ["CC1=[N+](C)c2ccccc2C1(C)C [I-h]", 462],
  ["CC1=[N+](Cc2ccc(C(=O)OCC(F)(F)C(C)F)cc2)c2ccccc2C1(C)C (stereo not drawn)", 495],
  ["COS(=O)(=O)CCCC[N+]1=C(C)C(C)(C)c2ccccc21", 461],
  ["Cc1sc2ccccc2[n+]1C", 472],
  ["CCN(CC)CC", 463],
  ["CC1=[N+](C)c2ccccc2C1(C)C [V-e]", 490],
  ["CCCC[N+](CCCC)(CCCC)CCCC [V-a]", 461],
  ["c1ccncc1", 460],
  ["CCOC(=O)CCCC[N+]1=C(C)C(C)(C)c2ccccc21", 460],
  ["CCCC[N+]1=C(C)C(C)(C)c2ccccc21", 459],
  ["CC1=[N+](Cc2ccc(C(=O)OCC(C)(C)C(C)C)cc2)c2ccccc2C1(C)C", 492],
  ["CC1=[N+](C)c2ccccc2C1(C)C [Dye V-2]", 493],
  ["CC1=[N+](C)c2ccccc2C1(C)C [Dye I-2]", 489]
]}
